Tested on: CYP3A1
measurement_notes: CYP inhibition assay in OVX rat liver microsomes
Format: in vitro ADME
assay_context: female, liver microsomes from ovariectomized (OVX) rats, pH 7.4, individual constituents 10 μM
Provide the recorded inhibition at 60 min, 10 μM for the entries that follow.
Reply numerically in %, unit not repeated.

Give me measured inhibition at 60 min, 10 μM, please, for this molecule: COc1cc(-c2oc3cc(O)cc(O)c3c(=O)c2O[C@@H]2O[C@H](CO[C@@H]3O[C@@H](C)[C@H](O)[C@@H](O)[C@H]3O)[C@@H](O)[C@H](O)[C@H]2O)ccc1O [narcissin] 10

Quickly give me recorded inhibition at 60 min, 10 μM for O=c1c(O)c(-c2ccc(O)cc2)oc2cc(O)cc(O)c12 [kaempferol] 20

Identify the reported inhibition at 60 min, 10 μM for the following entry. O=c1c(O)c(-c2ccc(O)c(O)c2)oc2cc(O)cc(O)c12 [quercetin] 10

====

Tested on: CYP2C11
measurement_notes: CYP inhibition assay in OVX rat liver microsomes
Format: in vitro ADME
assay_context: female, liver microsomes from ovariectomized (OVX) rats, pH 7.4, individual constituents 10 μM
Please go through the items and note down their inhibition at 60 min, 10 μM.
Write it as a number; the unit % goes unstated.

Specify inhibition at 60 min, 10 μM for O=c1c(O)c(-c2ccc(O)cc2)oc2cc(O)cc(O)c12 and stop. 10

Please look at this compound and report its inhibition at 60 min, 10 μM: O=c1c(O)c(-c2ccc(O)c(O)c2)oc2cc(O)cc(O)c12 18

====

Kindly supply the reported inhibition at 60 min, 10 μM values for the records listed here.
tgt: CYP1A2 (Homo sapiens, UniProt P05177)
Construct: tissue Corning 452117; host or cells: pooled human liver microsomes (150 donors)
Sequence (P05177 1-516): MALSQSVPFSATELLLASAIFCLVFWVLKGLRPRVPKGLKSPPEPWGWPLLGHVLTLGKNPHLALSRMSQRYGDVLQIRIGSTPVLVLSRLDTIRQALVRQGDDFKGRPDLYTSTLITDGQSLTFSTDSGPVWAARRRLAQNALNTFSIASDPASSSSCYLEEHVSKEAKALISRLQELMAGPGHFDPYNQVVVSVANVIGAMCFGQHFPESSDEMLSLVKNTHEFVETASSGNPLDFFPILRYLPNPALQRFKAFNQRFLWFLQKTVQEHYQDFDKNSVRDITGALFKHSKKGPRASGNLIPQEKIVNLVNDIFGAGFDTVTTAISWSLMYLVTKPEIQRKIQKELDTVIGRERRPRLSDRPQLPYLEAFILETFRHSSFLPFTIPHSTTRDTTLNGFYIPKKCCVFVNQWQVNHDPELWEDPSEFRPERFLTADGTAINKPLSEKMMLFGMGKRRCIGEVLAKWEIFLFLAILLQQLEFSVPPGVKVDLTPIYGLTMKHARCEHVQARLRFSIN
measurement_notes: CYP inhibition assay in human liver microsomes
Assay type: in vitro ADME
assay_context: pH 7.4; pooled human liver microsomes; individual constituents 10 μM
Could you give the number and then its unit, please?

Tell me measured inhibition at 60 min, 10 μM for COc1cc(-c2oc3cc(O)cc(O)c3c(=O)c2O)ccc1O [isorhamnetin] please. 40%

Return value of inhibition at 60 min, 10 μM for input O=c1c(O)c(-c2ccc(O)c(O)c2)oc2cc(O)cc(O)c12 [quercetin] , no commentary. 31%
